# TARGET: T1, extracellular domain of human ILT3 (huILT3-ECD) (human, UniProt Q8NHJ6 22-259)
# T1 construct: also called human ILT3-ECD
# ASSAY_EXPLANATION: SPR (Biacore), antibody captured via anti-Fc on CM5 chip, soluble ILT3-ECD injected
Measured Kd by item
Give the value in nM but do not write nM after it.

Example entries and their recorded answers appear below.
Hz48A6 B0/C2 (antibody, V domains shown) VH: EVQLVESGGGLVQPGGSLRLSCAASGFTFSSYGMSWVRQAPGKGLEWVATISSGGTYTFYPDSVKGRFTISRDNAKNSLYLQMNSLRAEDTAVYYCARRGWLLHYYAMDYWGQGTSVTVSS VL: DIQLTQSPSFLSASVGDRVTITCRPSESVDSFGNSFMHWFQQKPGKAPKLLIYLSSKLESGVPSRFSGSGSGTEFTLTISSLQPEDFATYYCQQHNEDPFTFGQGTKVEIK    0.28
Hz45G10 A2/A4 (antibody, V domains shown) VH: EVQLVESGGGLVQPGGSLRLSCAASGFTFSDYGMHWVRQAPGKGLEWVAYIFSGSSTIYYADTVKGRFTISRDNAKNSLYLQMNSLRAEDTAVYYCARADGRGAMDYWGQGTTVTVSS VL: DIQMTQSPSSLSASVGDRVTITCRASQDISKFLNWYQQKPGKAPKLLIYYTSRLHSGVPSRFSGSGSGTDFTFTISSLQPEDIATYFCQQGNTLPWTFGGGTKLEIK    0.2
Hz45G10 B1/A4 (antibody, V domains shown) VH: EVQLVESGGGLVKPGGSLRLSCAASGFTFSDYGMHWVRQAPGKGLEWVSYIFSGSSTIYYADTVKGRFTISRDNAKNSLYLQMNSLRAEDTAVYYCARADGRGAMDYWGQGTLVTVSS VL: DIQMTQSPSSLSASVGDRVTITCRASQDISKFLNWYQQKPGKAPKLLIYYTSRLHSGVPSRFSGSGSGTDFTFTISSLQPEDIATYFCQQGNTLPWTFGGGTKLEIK    0.2

With those in mind, consider the next binder.
# input Fill in reported Kd for this entry: 48A6 chimera (antibody, V domains shown, also called parental chimeric 48A6) VH: EVQLVESGGDLMKPGGSLKLSCAASGFTFSSYGMSWVRQTPDKRLEWVATISSGGTYTFYPDSVKGRFTISRDNAKNTLYLQMSSLKSEDTAMYYCARRGWLLHYYAMDYWGQGTSVTVSS VL: NIVLTQSPASLAVSLGQRATISCRPSESVDSFGNSFMHWFQQKPGQPPKLLIYLSSKLESGVPARFSGSGSRTDFTLTIDPVEADDAATYYCQQHNEDPFTFGSGTKLEIK
# output 0.066
